All values here come from the supplement of paper PMC12632987.

molecular target: UCHL1, P09936; experiment: median log2 fold change of GCK-ALFA target abundance (FLAG IP / Myc IP barcode read proportion) (log2 ratio); each designed protein is fused to an ALFA-tag nanobody in HEK293 cells to bring the named protein to FLAG-tagged glucokinase (GCK); Myc marks an untargeted standard; higher = target protein stabilised (more abundant); details: target protein: 3xFLAG-MCP-GCK-ALFA reporter; HEK293 landing pad (RPLP)
Sequence (P09936 whole entry, looked up, the tested form may be a part): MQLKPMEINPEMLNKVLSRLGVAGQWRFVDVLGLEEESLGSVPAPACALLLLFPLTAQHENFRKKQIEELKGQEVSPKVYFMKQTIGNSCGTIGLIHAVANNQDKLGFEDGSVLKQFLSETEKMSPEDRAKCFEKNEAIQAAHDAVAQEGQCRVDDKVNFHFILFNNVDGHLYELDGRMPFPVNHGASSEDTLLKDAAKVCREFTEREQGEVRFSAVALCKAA
readout_name: median log2 fold change

Look up median log2 fold change for this binder: uchl1_155_7500 (protein) GTTVTVTVTGTASDGTTHTLTKTFEGLTSSVADMEALREAILAMLLELAAKVDGDIKLTVNVRNATANQAVGIGTAVRRAASEAGKKTGKTIDVDITGLP
0.302

Here's the next entry for you.
Report median log2 fold change for uchl1_155_7495 (protein) MLEVEVEVVARRPDGTVARERFRFRTEEITPENRRALAERVAERVREFVERHGGDVDVTVRIRSPSQIARASLYRAIRIRLREVAKELGVEVTVRAEPVP please.
-0.0429
